- SYSTEM: T1, PUF4 RNA-binding domain (Saccharomyces cerevisiae, UniProt P25339 537-888)
- T1 sequence: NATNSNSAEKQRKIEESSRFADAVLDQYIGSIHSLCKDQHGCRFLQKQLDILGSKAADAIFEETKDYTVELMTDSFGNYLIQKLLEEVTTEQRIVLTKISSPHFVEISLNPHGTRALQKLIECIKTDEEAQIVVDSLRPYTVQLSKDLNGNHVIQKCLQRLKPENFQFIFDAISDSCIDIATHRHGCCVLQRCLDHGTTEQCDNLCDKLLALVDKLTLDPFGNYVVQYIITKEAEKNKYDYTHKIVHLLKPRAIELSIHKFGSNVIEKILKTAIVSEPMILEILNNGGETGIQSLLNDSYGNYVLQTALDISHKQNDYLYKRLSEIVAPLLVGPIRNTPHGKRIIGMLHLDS
- EXPERIMENT DESCRIPTION: Mg; RNA-MaP; 20 mM Na-HEPES pH 7.4, 30 mM KOAc, 0.75 mM MgCl2, 0.1% Tween-20, 5% glycerol, 0.1 mg/mL BSA, 2 mM DTT; 25 C; 0.0125-409.6 nM protein
- MEASUREMENT PARAMETERS: tags: N-His6-TEV cleaved; C-SNAP kept, Cy3B-labelled; label: tethered on chip by stalled RNA polymerase
QUANTITY: Kd

input: Consider the binder UCUCUUUGUAAUCAUUCUCUU (ssRNA) [Ic_S1_P4E.1_K4.1_C4.1_H4.1_A4.1_[T5A]_[A6T]_[T7C]_F4.1_[T8A]_[A9T]_T4.1] . State its measured Kd.
output: 413 nM

input: Read off the recorded Kd for UCUCUUGGACACUUAUUAUAUCUCUU (ssRNA) [Id_ii_S1_P5E.4_K5.3_C5.2_[C-2G]_[T-1G]_H5.3_A5.1_F5.1_T5.2]
output: > 2300 nM

input: Specify Kd for UCUCUUUGUAACCUUUUCUCUU (ssRNA) [Ic_S1_P5E.1_K5.1_C5.1_H5.1_A5.1_[T5A]_[T6C]_[A7C]_F5.1_[A10T]_T5.1] and stop.
output: 49.8 nM

input: Consider the binder Id_ii_S4_P5E.2_K5.1_C5.2_H5.1_A5.1_F5.1_T5.2_[T11A]_[A12C] (ssRNA) RNA: UUUGACAACUGAUCGUUCUUUCUCUUGUAUUAUUAACUUCUUUCUCGAUCAGUUGUCUUU . State its measured Kd.
output: 3 nM

input: Please give measured Kd of the following entry: Id_ii_S4_P5E.2_K5.1_C5.2_[T-1A]_H5.1_A5.1_F5.1_T5.2_[T11A] (ssRNA) RNA: UUUGACAACUGAUCGUUCUUUCUCAUGUAUUAUUAAAUUCUUUCUCGAUCAGUUGUCUUU
output: 8.86 nM

input: Retrieve Kd measured for UCUCUUGUACACUAUUAACUCUCUU (ssRNA) [Id_ii_S1_P4E.4_K4.3_C4.2_[C-2G]_H4.3_A4.1_F4.1_T4.2_[G10A]_[T11C]] and print it.
output: 0.968 nM
